- System: Sporothrix schenckii
- measurement.notes: Antimicrobial activity against Sporothrix schenckii after 72 hrs by standard microbroth dilution assay
- Assay type: functional
Listing of recorded MIC by entry.
endpoint.label: MIC

{"compound": "Clc1cccc(CO/N=C2\\c3cccc(Cl)c3CCC2Cn2cncn2)c1 (configuration not stated)", "study.target": "Sporothrix schenckii", "endpoint.label": "MIC", "observed.measurement": "> 50 µg/mL"}
{"compound": "Brc1cccc2c1CCC(Cn1cncn1)/C2=N/OCc1ccccc1 (configuration not stated)", "study.target": "Sporothrix schenckii", "endpoint.label": "MIC", "observed.measurement": "> 50 µg/mL"}
{"compound": "Fc1cccc2c1CCC(Cn1cncn1)/C2=N/OCc1cccc(Cl)c1 (configuration not stated)", "study.target": "Sporothrix schenckii", "endpoint.label": "MIC", "observed.measurement": "> 50 µg/mL"}
{"compound": "Fc1cccc2c1CCC(Cn1cncn1)/C2=N/OCc1ccccc1 (configuration not stated)", "study.target": "Sporothrix schenckii", "endpoint.label": "MIC", "observed.measurement": "> 50 µg/mL"}
{"compound": "Cc1cccc2c1CCC(Cn1cncn1)/C2=N/OCc1cccc(Cl)c1 (configuration not stated)", "study.target": "Sporothrix schenckii", "endpoint.label": "MIC", "observed.measurement": "> 50 µg/mL"}
{"compound": "Clc1cccc(CO/N=C2/c3cccc(Br)c3CCC2Cn2ccnc2)c1 (configuration not stated)", "study.target": "Sporothrix schenckii", "endpoint.label": "MIC", "observed.measurement": "50 µg/mL"}
{"compound": "Clc1cccc(CO/N=C2\\c3ccccc3CCC2Cn2cncn2)c1 (configuration not stated)", "study.target": "Sporothrix schenckii", "endpoint.label": "MIC", "observed.measurement": "> 50 µg/mL"}

====

Listing of recorded MIC by entry.
- Test system: Klebsiella pneumoniae
- measurement.notes: microbe, parasite or virus in culture
- Assay type: functional
- experimental.setup: ATCC 27736, 24 h
- Description: Antimicrobial activity against Klebsiella pneumoniae ATCC 27736 after 24 hrs by standard microbroth dilution assay

{"molecule": "Clc1cccc(CO/N=C2\\c3ccccc3CCC2Cn2ccnc2)c1 (stereo not drawn)", "MIC": "3.12 µg/mL"}
{"molecule": "Cc1cccc2c1CCC(Cn1ccnc1)/C2=N/OCc1cccc(Cl)c1 (stereo not drawn)", "MIC": "1.56 µg/mL"}
{"molecule": "Clc1cccc2c1CCC(Cn1ccnc1)/C2=N/OCc1ccccc1 (stereo not drawn)", "MIC": "6.25 µg/mL"}
{"molecule": "Fc1cccc2c1CCC(Cn1ccnc1)/C2=N/OCc1cccc(Cl)c1 (stereo not drawn)", "MIC": "1.56 µg/mL"}
{"molecule": "Clc1cccc2c1CCC(Cn1ccnc1)/C2=N\\OCc1ccccc1 (stereo not drawn)", "MIC": "> 50 µg/mL"}
{"molecule": "Clc1cccc(CO/N=C2\\c3cccc(Cl)c3CCC2Cn2cncn2)c1 (stereo not drawn)", "MIC": "> 50 µg/mL"}
{"molecule": "Clc1cccc2c1CCC(Cn1cncn1)/C2=N/OCc1ccccc1 (stereo not drawn)", "MIC": "> 50 µg/mL"}
{"molecule": "Clc1cccc(CO/N=C2/c3cccc(Br)c3CCC2Cn2ccnc2)c1 (stereo not drawn)", "MIC": "> 50 µg/mL"}
{"molecule": "Fc1cccc2c1CCC(Cn1ccnc1)/C2=N/OCc1ccccc1 (stereo not drawn)", "MIC": "6.25 µg/mL"}
{"molecule": "Clc1cccc(CO/N=C2/c3ccccc3CCC2Cn2ccnc2)c1 (stereo not drawn)", "MIC": "> 50 µg/mL"}
{"molecule": "Cc1cccc2c1CCC(Cn1ccnc1)/C2=N/OCc1ccccc1 (stereo not drawn)", "MIC": "6.25 µg/mL"}
{"molecule": "Cc1cccc2c1CCC(Cn1cncn1)/C2=N/OCc1cccc(Cl)c1 (stereo not drawn)", "MIC": "> 50 µg/mL"}
{"molecule": "Clc1ccc(CO/N=C(\\Cn2ccnc2)c2ccc(Cl)cc2Cl)c(Cl)c1", "MIC": "> 50 µg/mL"}
{"molecule": "Clc1cccc(CO/N=C2\\c3cccc(Br)c3CCC2Cn2cncn2)c1 (stereo not drawn)", "MIC": "> 50 µg/mL"}
{"molecule": "Fc1cccc2c1CCC(Cn1cncn1)/C2=N/OCc1cccc(Cl)c1 (stereo not drawn)", "MIC": "> 50 µg/mL"}
{"molecule": "c1ccc(CO/N=C2\\c3ccccc3CCC2Cn2ccnc2)cc1 (stereo not drawn)", "MIC": "6.25 µg/mL"}
{"molecule": "Brc1cccc2c1CCC(Cn1cncn1)/C2=N/OCc1ccccc1 (stereo not drawn)", "MIC": "> 50 µg/mL"}
{"molecule": "Brc1cccc2c1CCC(Cn1ccnc1)/C2=N/OCc1ccccc1 (stereo not drawn)", "MIC": "3.12 µg/mL"}
{"molecule": "Clc1cccc(CO/N=C2\\c3ccccc3CCC2Cn2cncn2)c1 (stereo not drawn)", "MIC": "> 50 µg/mL"}
{"molecule": "c1ccc(CO/N=C2\\c3ccccc3CCC2Cn2cncn2)cc1 (stereo not drawn)", "MIC": "> 50 µg/mL"}
{"molecule": "Fc1cccc2c1CCC(Cn1cncn1)/C2=N/OCc1ccccc1 (stereo not drawn)", "MIC": "> 50 µg/mL"}
{"molecule": "Clc1cccc(CO/N=C2\\c3cccc(Br)c3CCC2Cn2ccnc2)c1 (stereo not drawn)", "MIC": "1.56 µg/mL"}
{"molecule": "Cc1cccc2c1CCC(Cn1cncn1)/C2=N/OCc1ccccc1 (stereo not drawn)", "MIC": "> 50 µg/mL"}
